assay: Oral bioavailability in Sprague-Dawley rat at 20 mg/kg measured for 24 hrs by LC-MS/MS analysis; format: ADME, organism-based; details: in vivo
measured attribute: bioavailability (%)
Report the value in % with no unit label.

Query block: Annotate the compound C[C@H](N)C(=O)N1Cc2ccc(-c3cccc(-c4ccc5c(c4)OCCO5)c3Cl)cc2C1.Cl with its measured bioavailability.
Result block: 21.4

====

assay: Half life in Sprague-Dawley rat at 20 mg/kg, po measured for 24 hrs by LC-MS/MS analysis; format: ADME, organism-based; settings: in vivo
measured attribute: half-life (h)
Report the value in h with no unit label.

Query block: Annotate the molecule C[C@H](N)C(=O)N1Cc2ccc(-c3cccc(-c4ccc5c(c4)OCCO5)c3Cl)cc2C1.Cl with its measured half-life.
Result block: 3.58

====

test: AUC (0 to infinity) in Sprague-Dawley rat at 10 mg/kg, ip measured for 24 hrs by LC-MS/MS analysis; type: ADME, organism-based; conditions: in vivo
measured attribute: AUC(0-inf)

Query block: Annotate the compound C[C@H](N)C(=O)N1Cc2ccc(-c3cccc(-c4ccc5c(c4)OCCO5)c3Cl)cc2C1.Cl with its measured AUC(0-inf).
Result block: 1620 ng·h/mL

====

experiment: AUC (0 to infinity) in Sprague-Dawley rat at 1 mg/kg, iv measured for 24 hrs by LC-MS/MS analysis; type: ADME, organism-based; details: in vivo
measured attribute: AUC(0-inf) (ng·h/mL)
Report the value in ng·h/mL with no unit label.

Query block: Annotate the compound C[C@H](N)C(=O)N1Cc2ccc(-c3cccc(-c4ccc5c(c4)OCCO5)c3Cl)cc2C1.Cl with its measured AUC(0-inf).
Result block: 191

====

Overview of recorded IC50 for various molecules
molecular target: Programmed cell death protein 1/Programmed cell death 1 ligand 1 (Homo sapiens, UniProt Q9NZQ7); assay: Inhibition of interaction of PD-1/PD-L1 (unknown origin) by HTRF analysis; assay type: protein-complex assay
Sequence (Q15116 whole entry): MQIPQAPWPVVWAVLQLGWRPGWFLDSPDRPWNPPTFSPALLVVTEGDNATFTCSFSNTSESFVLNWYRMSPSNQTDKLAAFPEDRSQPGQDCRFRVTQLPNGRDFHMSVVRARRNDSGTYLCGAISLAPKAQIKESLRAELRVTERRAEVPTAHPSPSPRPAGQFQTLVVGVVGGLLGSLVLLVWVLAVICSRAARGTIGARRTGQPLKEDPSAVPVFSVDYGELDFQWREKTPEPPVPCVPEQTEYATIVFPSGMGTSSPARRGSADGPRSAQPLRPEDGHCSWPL
Sequence (Q9NZQ7 whole entry): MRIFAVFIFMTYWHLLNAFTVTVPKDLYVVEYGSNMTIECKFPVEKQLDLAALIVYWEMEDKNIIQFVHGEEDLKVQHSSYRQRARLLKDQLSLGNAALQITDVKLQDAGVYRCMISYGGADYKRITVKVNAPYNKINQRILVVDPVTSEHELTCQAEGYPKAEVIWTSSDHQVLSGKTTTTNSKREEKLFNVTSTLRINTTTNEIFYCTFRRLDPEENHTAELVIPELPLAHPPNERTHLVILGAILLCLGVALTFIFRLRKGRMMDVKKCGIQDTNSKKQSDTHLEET
Report the value in nM with no unit label.

C[C@H](N)C(=O)N1Cc2ccc(-c3cccc(-c4ccc5c(c4)OCCO5)c3C#N)cc2C1; 24.5
Fc1c(-c2ccccc2)cccc1-c1ccc2c(c1)CNC2; 95.6
Cc1c(-c2ccccc2)cccc1-c1ccc2c(c1)CN(C(=O)CN)C2; 293
N#Cc1c(-c2ccccc2)cccc1-c1ccc2c(c1)CN(C(=O)[C@@H]1CCCCN1)C2; 64.2
COC(=O)C[C@H](N)C(=O)N1Cc2ccc(-c3cccc(-c4ccccc4)c3C)cc2C1; 416

Query block: Annotate the molecule N#Cc1c(-c2ccccc2)cccc1-c1ccc2c(c1)CNC2=O with its measured IC50.
Result block: 145

Query block: Annotate the molecule Nc1c(-c2ccccc2)cccc1-c1ccc2c(c1)CNC2 with its measured IC50.
Result block: 194

Query block: Annotate the molecule Cc1c(-c2ccccc2)cccc1-c1ccc2c(c1)CN(C(=O)[C@@H](N)CCCCN)C2 with its measured IC50.
Result block: 539

Query block: Annotate the molecule N#Cc1c(-c2ccccc2)cccc1-c1ccc2c(c1)CNC2 with its measured IC50.
Result block: 47.6

====

experiment: AUC (0 to 24 hrs) in Sprague-Dawley rat at 20 mg/kg, po measured for 24 hrs by LC-MS/MS analysis; format: ADME, organism-based; details: in vivo
measured attribute: AUC(0-t) at 24 h (ng·h/mL)
Report the value in ng·h/mL with no unit label.

Query block: Annotate the compound C[C@H](N)C(=O)N1Cc2ccc(-c3cccc(-c4ccc5c(c4)OCCO5)c3Cl)cc2C1.Cl with its measured AUC(0-t) at 24 h.
Result block: 467

====

assay: Cytotoxicity against human HaCaT cells measured after 48 hrs by MTT assay; assay type: toxicity, cell-based
measured attribute: IC50 at 48 h

Query block: Annotate the compound C[C@H](N)C(=O)N1Cc2ccc(-c3cccc(-c4ccc5c(c4)OCCO5)c3Cl)cc2C1.Cl with its measured IC50 at 48 h.
Result block: > 100 µM

====

test: Clearance in Sprague-Dawley rat at 1 mg/kg, iv measured for 24 hrs by LC-MS/MS analysis; format: ADME, organism-based; settings: in vivo
measured attribute: clearance (mL/min/kg)
Report the value in mL/min/kg with no unit label.

Query block: Annotate the compound C[C@H](N)C(=O)N1Cc2ccc(-c3cccc(-c4ccc5c(c4)OCCO5)c3Cl)cc2C1.Cl with its measured clearance.
Result block: 87.7

====

experiment: Cytotoxicity against mouse MC38 cells measured after 48 hrs by MTT assay; type: toxicity, cell-based, MC-38
measured attribute: IC50 at 48 h
Your reply should be a number followed by the unit it is expressed in.

Query block: Annotate the compound C[C@H](N)C(=O)N1Cc2ccc(-c3cccc(-c4ccc5c(c4)OCCO5)c3Cl)cc2C1.Cl with its measured IC50 at 48 h.
Result block: 12 µM

====

assay: Half life in Sprague-Dawley rat at 10 mg/kg, ip measured for 24 hrs by LC-MS/MS analysis; format: ADME, organism-based; conditions: in vivo
measured attribute: half-life (h)
Report the value in h with no unit label.

Query block: Annotate the compound C[C@H](N)C(=O)N1Cc2ccc(-c3cccc(-c4ccc5c(c4)OCCO5)c3Cl)cc2C1.Cl with its measured half-life.
Result block: 4.02

====

test: AUC (0 to 24 hrs) in Sprague-Dawley rat at 10 mg/kg, ip measured for 24 hrs by LC-MS/MS analysis; type: ADME, organism-based; details: in vivo
measured attribute: AUC(0-t) at 24 h (ng·h/mL)
Report the value in ng·h/mL with no unit label.

Query block: Annotate the compound C[C@H](N)C(=O)N1Cc2ccc(-c3cccc(-c4ccc5c(c4)OCCO5)c3Cl)cc2C1.Cl with its measured AUC(0-t) at 24 h.
Result block: 1010

====

assay: Binding affinity to human PD-L1 assessed as dissociation constant by SPR analysis
measured attribute: pKd
Reminder that pKd is minus the log10 of a molar concentration.

Query block: Annotate the compound C[C@H](N)C(=O)N1Cc2ccc(-c3cccc(-c4ccc5c(c4)OCCO5)c3Cl)cc2C1.Cl with its measured pKd.
Result block: 6.64

====

experiment: Cytotoxicity against human L02 cells measured after 48 hrs by MTT assay; type: toxicity, cell-based
measured attribute: IC50 at 48 h

Query block: Annotate the compound C[C@H](N)C(=O)N1Cc2ccc(-c3cccc(-c4ccc5c(c4)OCCO5)c3Cl)cc2C1.Cl with its measured IC50 at 48 h.
Result block: > 10 µM

====

assay: Cmax in Sprague-Dawley rat at 10 mg/kg, ip measured for 24 hrs by LC-MS/MS analysis; type: ADME, organism-based; details: in vivo
measured attribute: Cmax
Your reply should be a number followed by the unit it is expressed in.

Query block: Annotate the molecule C[C@H](N)C(=O)N1Cc2ccc(-c3cccc(-c4ccc5c(c4)OCCO5)c3Cl)cc2C1.Cl with its measured Cmax.
Result block: 412 ng/mL

====

biological target: Programmed cell death protein 1/Programmed cell death 1 ligand 1 (Homo sapiens, UniProt Q9NZQ7); assay: Inhibition of interaction of PD-1/PD-L1 (unknown origin) by HTRF analysis
measured attribute: pIC50
Reminder that pIC50 is minus the log10 of a molar concentration.

N#Cc1c(-c2ccccc2)cccc1-c1ccc2c(c1)C(=O)NC2; 5.82
O=C([C@@H]1CCCN1)N1Cc2ccc(-c3cccc(-c4ccc5c(c4)OCCO5)c3Cl)cc2C1; 7.81

Query block: Annotate the compound Clc1c(-c2ccccc2)cccc1-c1ccc2c(c1)CNC2 with its measured pIC50.
Result block: 8.03

Query block: Annotate the compound O=C([C@@H]1CCCCN1)N1Cc2ccc(-c3cccc(-c4ccccc4)c3Cl)cc2C1 with its measured pIC50.
Result block: 7.94

Query block: Annotate the compound Cc1c(-c2ccccc2)cccc1-c1ccc2c(c1)CN(C(=O)[C@H]1NCCC1O)C2 (some centres not stated) with its measured pIC50.
Result block: 7.62

====

test: Cmax in Sprague-Dawley rat at 20 mg/kg, po measured for 24 hrs by LC-MS/MS analysis; format: ADME, organism-based; conditions: in vivo
measured attribute: Cmax (ng/mL)
Report the value in ng/mL with no unit label.

Query block: Annotate the molecule C[C@H](N)C(=O)N1Cc2ccc(-c3cccc(-c4ccc5c(c4)OCCO5)c3Cl)cc2C1.Cl with its measured Cmax.
Result block: 151

====

assay: AUC (0 to infinity) in Sprague-Dawley rat at 20 mg/kg, po measured for 24 hrs by LC-MS/MS analysis; assay type: ADME, organism-based; conditions: in vivo
measured attribute: AUC(0-inf) (ng·h/mL)
Report the value in ng·h/mL with no unit label.

Query block: Annotate the compound C[C@H](N)C(=O)N1Cc2ccc(-c3cccc(-c4ccc5c(c4)OCCO5)c3Cl)cc2C1.Cl with its measured AUC(0-inf).
Result block: 644
